Data provenance: patent US20230233569A1

- Tested On: KRAS WT (Homo sapiens, UniProt P01116+P62937)
- Sequence (P01116 1-169 isoform P01116-2 limits assumed, one chain of several): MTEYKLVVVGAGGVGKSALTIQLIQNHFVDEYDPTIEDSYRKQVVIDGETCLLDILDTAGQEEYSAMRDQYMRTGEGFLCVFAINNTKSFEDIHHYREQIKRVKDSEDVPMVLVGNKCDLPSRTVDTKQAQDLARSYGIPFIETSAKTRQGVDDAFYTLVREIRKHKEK
- Protocol Notes: Disruption of BRAF RBD interaction with Ras (FRET / MOA assay, with Cyclophilin A)
- Assay type: biochemical
- Recorded Conditions: KRAS WT; read-out: KRAS WT FRET data IC50
- Text: This protocol may also be executed substituting other Ras proteins or nucleotides. The purpose of this biochemical assay was to measure the ability of test compounds to facilitate ternary complex formation between a nucleotide-loaded K-Ras isoform and Cyclophilin A; the resulting ternary complex disrupts binding to a BRAF^RBD construct, inhibiting K-Ras signaling through a RAF effector. Data is reported as IC50 values. […]
Observable: IC50

[[record]]
compound = "C=CC(=O)N1CC(OC[C@H](C(=O)N[C@H]2Cc3cccc(c3)-c3ccc4c(c3)c(c(-c3cccnc3[C@H](C)OC)n4CC(F)(F)F)CC(C)(C)COC(=O)[C@@H]3CCCN(N3)C2=O)C(C)C)C1 [Example A453]"
tested_on = "KRAS WT (Homo sapiens, UniProt P01116+P62937)"
result = "> 10000 nM"

[[record]]
compound = "CCn1c(-c2cccnc2COC)c2c3cc(ccc31)-c1cc(O)cc(c1)C[C@H](NC(=O)[C@H](C(C)C)N(C)C(=O)[C@H]1CCN(C(=O)/C=C/CN3CCN(C)CC3)C1)C(=O)N1CCC[C@H](N1)C(=O)OCC(C)(C)C2 [Example A072]"
tested_on = "KRAS WT (Homo sapiens, UniProt P01116+P62937)"
result = "100 to 1000 nM"

[[record]]
compound = "CCn1c(-c2cccnc2[C@H](C)OC)c2c3cc(ccc31)-c1csc(n1)C[C@H](NC(=O)[C@H]1C[C@@H]1C)C(=O)N1CCC[C@H](N1)C(=O)OCC(C)(C)C2 [Example A286]"
tested_on = "KRAS WT (Homo sapiens, UniProt P01116+P62937)"
result = "100 to 1000 nM"


###

Attribute: IC50
- Tested On: KRAS WT (Homo sapiens, UniProt P01116+P62937)
- Protocol Notes: Ras-Raf disruption / FRET / MOA assay (BRAF RBD)
- Format: biochemical
- Recorded Conditions: Ras-Raf disruption, with Cyclophilin A; read-out: KRAS WT FRET data IC50
Observable: IC50

[[record]]
molecule = "CCn1c(-c2cccnc2[C@H](C)OC)c2c3cc(ccc31)-c1cc(O)cc(c1)C[C@H](NC(=O)[C@H](C1CCCC1)N1CC[C@]3(CCN(C(=O)[C@@H]4N[C@@H]4C4CC4)C3)C1=O)C(=O)N1CCC[C@H](N1)C(=O)OCC(C)(C)C2"
result = "10 to 100 nM"

[[record]]
molecule = "CCn1c(-c2cccnc2[C@H](C)OC)c2c3cc(ccc31)-c1cc(O)cc(c1)C[C@H](NC(=O)[C@H](C(C)C)N(C)C(=O)N1CCCN(C(=O)[C@@H]3CN3)CC1)C(=O)N1CCC[C@H](N1)C(=O)OCC(C)(C)C2"
result = "10 to 100 nM"

[[record]]
molecule = "CCn1c(-c2cccnc2[C@H](C)OC)c2c3cc(ccc31)-c1csc(n1)C[C@H](NC(=O)[C@H](C(C)C)N(C)C(=O)N1CC[C@@H](N(C)C(=O)[C@H]3CN3)C1)C(=O)N1CCC[C@H](N1)C(=O)OCC(C)(C)C2 (atropisomer, axis not shown)"
result = "100 to 1000 nM"

[[record]]
molecule = "CCn1c(-c2cccnc2[C@H](C)OC)c2c3cc(ccc31)-c1cc(O)cc(c1)C[C@H](NC(=O)[C@H](C(C)C)N(C)C(=O)CN(C)S(=O)(=O)[C@H]1CN1C)C(=O)N1CCC[C@H](N1)C(=O)OCC(C)(C)C2 (single isomer, unassigned)"
result = "10 to 100 nM"


###

Attribute: pIC50
- Tested On: NRAS Q61R (Homo sapiens, UniProt P01111+P62937, Q61R)
- Sequence (P01111 whole entry Q61R): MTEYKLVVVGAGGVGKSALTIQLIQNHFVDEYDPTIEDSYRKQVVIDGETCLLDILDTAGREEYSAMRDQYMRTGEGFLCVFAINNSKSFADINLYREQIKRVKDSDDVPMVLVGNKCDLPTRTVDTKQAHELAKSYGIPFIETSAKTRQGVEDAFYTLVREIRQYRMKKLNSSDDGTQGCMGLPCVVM
- Sequence (P62937 whole entry): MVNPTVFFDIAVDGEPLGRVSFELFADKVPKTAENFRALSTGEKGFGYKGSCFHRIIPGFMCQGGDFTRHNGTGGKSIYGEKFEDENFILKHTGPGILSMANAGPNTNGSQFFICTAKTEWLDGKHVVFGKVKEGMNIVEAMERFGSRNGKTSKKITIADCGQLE
- Protocol Notes: Ras-Raf disruption / FRET / MOA assay (BRAF RBD)
- Type: biochemical
- Recorded Conditions: NRAS Q61R; read-out: NRAS Q61R FRET data IC50
pIC50: −log10 of the molar value.
Observable: pIC50

[[record]]
compound = "CCn1c(-c2cccnc2[C@H](C)OC)c2c3cc(ccc31)-c1csc(n1)C[C@H](NC(=O)[C@H](C(C)C)N(C)C(=O)N1CC[C@@H](N(C)C(=O)[C@H]3CN3)C1)C(=O)N1CCC[C@H](N1)C(=O)OCC(C)(C)C2 (atropisomer, axis not shown)"
observable = "pIC50"
result = "6.00 to 7.00"

[[record]]
compound = "CCn1c(-c2cccnc2[C@H](C)OC)c2c3cc(ccc31)-c1csc(n1)C[C@H](NC(=O)[C@H](C(C)C)N(C)C(=O)N1CCC[C@H](N(C)C(=O)[C@@H]3CN3)C1)C(=O)N1CCC[C@H](N1)C(=O)OCC(C)(C)C2 (atropisomer, axis not shown)"
observable = "pIC50"
result = "6.00 to 7.00"


###

Attribute: IC50
- Tested On: NRAS Q61R (Homo sapiens, UniProt P01111+P62937, Q61R)
- Protocol Notes: Disruption of BRAF RBD interaction with Ras (FRET / MOA assay, with Cyclophilin A)
- Type: biochemical
- Recorded Conditions: NRAS Q61R; read-out: NRAS Q61R FRET data IC50
Observable: IC50

[[record]]
compound = "CCn1c(-c2cccnc2[C@H](C)OC)c2c3cc(ccc31)-c1csc(n1)C[C@H](NC(=O)[C@H](C(C)C)N(C)C(=O)N1CC3(CC(N(C)CCOC)C3)C1)C(=O)N1CCC[C@H](N1)C(=O)OCC(C)(C)C2 (atropisomer, axis not shown) [Example A532]"
result = "100 to 1000 nM"

[[record]]
compound = "C=CC(=O)N1CC[C@H](C(=O)N(C)[C@H](C(=O)N[C@H]2Cc3cccc(c3)-c3ccc4c(c3)c(c(-c3cccnc3[C@H](C)OC)n4CC)CC(C)(C)COC(=O)C3CCCN(N3)C2=O)[C@H](C)C(F)(F)F)C1 (stereo partly shown) [Example A641]"
result = "1000 to 10000 nM"

[[record]]
compound = "CCn1c(-c2cccnc2[C@H](C)OC)c2c3cc(ccc31)-c1csc(n1)C[C@H](NC(=O)[C@H](C(C)C)N(C)C(=O)N1C[C@@H]3CN(C(=O)C#CC(C)(C)N(C)C)CC[C@@H]31)C(=O)N1CCCC(N1)C(=O)OCC(C)(C)C2 (stereo partly shown) [Example A625]"
result = "100 to 1000 nM"

[[record]]
compound = "CCn1c(-c2cccnc2[C@H](C)OC)c2c3cc(ccc31)-c1csc(n1)C[C@H](NC(=O)[C@H](C(C)C)N(C)C(=O)N1[C@@H](C)CN(C)C[C@@H]1C)C(=O)N1CCC[C@H](N1)C(=O)OCC(C)(C)C2 [Example A609]"
result = "100 to 1000 nM"

[[record]]
compound = "CCn1c(-c2cccnc2[C@H](C)OC)c2c3cc(ccc31)-c1csc(n1)C[C@H](NC(=O)[C@H](C(C)C)N(C)C(=O)N1CCCC[C@@H](N(C)C)C1)C(=O)N1CCC[C@H](N1)C(=O)OCC(C)(C)C2 [Example A492]"
result = "100 to 1000 nM"

[[record]]
compound = "CCn1c(-c2cccnc2[C@H](C)OC)c2c3cc(ccc31)-c1csc(n1)C[C@H](NC(=O)[C@H](C(C)C)N(C)C(=O)N(C)C1CN(C(=O)/C=C/C(C)(C)O)C1)C(=O)N1CCC[C@H](N1)C(=O)OCC(C)(C)C2 (atropisomer, axis not shown) [Example A350]"
result = "100 to 1000 nM"

[[record]]
compound = "CCn1c(-c2cccnc2[C@H](C)OC)c2c3cc(ccc31)-c1cc(O)cc(c1)C[C@H](NC(=O)[C@H](C(C)C)N(C)C(=O)[C@H]1CCN(C(=O)OC)C1)C(=O)N1CCC[C@H](N1)C(=O)OCC(C)(C)C2 (atropisomer, axis not shown) [Example A3]"
result = "100 to 1000 nM"

[[record]]
compound = "CCn1c(-c2cccnc2[C@H](C)OC)c2c3cc(ccc31)-c1csc(n1)C[C@H](NC(=O)[C@H]1C[C@@H]1C)C(=O)N1CCC[C@H](N1)C(=O)OCC(C)(C)C2 [Example A286]"
result = "100 to 1000 nM"

[[record]]
compound = "C=CC(=O)N1CC[C@]2(C1)OCN(C(=O)N(C)[C@H](C(=O)N[C@H]1Cc3cccc(n3)-c3ccc4c(c3)c(c(-c3cccnc3[C@H](C)OC)n4CC)CC(C)(C)COC(=O)[C@@H]3CCCN(N3)C1=O)C(C)C)C2=O (atropisomer, axis not shown) [Example A652]"
result = "1000 to 10000 nM"

[[record]]
compound = "C=CC(=O)N1CCO[C@@]2(CCN(C(=O)N(C)[C@H](C(=O)N[C@H]3Cc4nc(cs4)-c4ccc5c(c4)c(c(-c4cccnc4[C@H](C)OC)n5CC(F)(F)F)CC(C)(C)COC(=O)C4CCCN(N4)C3=O)C(C)C)C2)C1 (stereo partly shown) [Example A594]"
result = "10 to 100 nM"

[[record]]
compound = "CCn1c(-c2cccnc2[C@H](C)OC)c2c3cc(ccc31)-c1csc(n1)C[C@H](NC(=O)[C@H](C(C)C)N(C)C(=O)N(C)C1(COC)COC1)C(=O)N1CCC[C@H](N1)C(=O)OCC(C)(C)C2 [Example A455]"
result = "100 to 1000 nM"

[[record]]
compound = "C=CC(=O)N(C)C1CCN(C(=O)N(C)[C@H](C(=O)N[C@H]2Cc3nc(cs3)-c3ccc4c(c3)c(c(-c3cccnc3[C@H](C)OC)n4CC)CC(C)(C)COC(=O)[C@@H]3CCCN(N3)C2=O)C(C)C)C1 (stereo partly shown) [Example A384]"
result = "100 to 1000 nM"

[[record]]
compound = "C=CC(=O)N1CC[C@H](C(=O)N(C)[C@H](C(=O)N[C@H]2Cc3cc(O)cc(c3)-c3ccc4c(c3)c(c(-c3ccccc3[C@H](C)OC)n4CC)CC(C)(C)COC(=O)[C@@H]3CCCN(N3)C2=O)C(C)C)C1 [Example A022]"
result = "100 to 1000 nM"

[[record]]
compound = "CCn1c(-c2cccnc2[C@H](C)OC)c2c3cc(ccc31)N1CCC[C@@H](C[C@H](NC(=O)[C@H](C(C)C)N(C)C(=O)C3(F)CCN(C(=O)C#CC(C)(C)N(C)C)CC3)C(=O)N3CCCC(N3)C(=O)OCC(C)(C)C2)C1 [Example A616]"
result = "> 10000 nM"

[[record]]
compound = "CCn1c(-c2cccnc2[C@H](C)OC)c2c3cc(ccc31)-c1csc(n1)C[C@H](NC(=O)[C@H](C(C)C)N(C)C(=O)N1CCN3CCOC[C@@H]3C1)C(=O)N1CCC[C@H](N1)C(=O)OCC(C)(C)C2 [Example A547]"
result = "100 to 1000 nM"

[[record]]
compound = "CCn1c(-c2cc(N3CCN(C)CC3)cnc2[C@H](C)OC)c2c3cc(ccc31)-c1csc(n1)C[C@H](NC(=O)[C@H](C(C)C)N(C)C(=O)[C@H]1CCNC1=O)C(=O)N1CCC[C@H](N1)C(=O)OCC(C)(C)C2 (single isomer, unassigned) [Example A449]"
result = "100 to 1000 nM"

